test system: LHRH binding sites on human ovarian cancer cells (EFO-27);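 note: Cell-associated radioactivity on confluent EFO-27 monolayers in 96-well plates, measured by microplate scintillation counting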
quantity.measured: EC50
Dear colleague, please send the value followed by its unit.

Some solved cases for reference:
>>> readout_value("CNCC(=O)N[C@@H](CCCNC(=N)N)C(=O)N[C@@H](Cc1c[nH]c2ccccc12)C(=O)N[C@@H](CO)C(=O)N[C@@H](Cc1c[nH]cn1)C(=O)N[C@H](CCCNC(=N)N)C(=O)N[C@@H](Cc1c[nH]c2ccccc12)C(=O)N[C@@H](Cc1ccc(C(=O)c2ccccc2)cc1)C(=O)N1CCC[C@H]1C(=O)NCCCN(C)CCCNC(=O)CN1CCN(CC(=O)O)CCN(CC(=O)O)CCN(CC(=O)O)CC1 [compound 3045]")
"210 nM"
>>> readout_value("N=C(N)NCCC[C@H](NC(=O)[C@@H](Cc1ccc2ccccc2c1)NC(=O)CN1CCN(CC(=O)O)CCN(CC(=O)O)CCN(CC(=O)O)CC1)C(=O)N[C@@H](Cc1c[nH]c2ccccc12)C(=O)N[C@@H](CO)C(=O)N[C@@H](Cc1c[nH]cn1)C(=O)N[C@H](CCCNC(=N)N)C(=O)N[C@@H](Cc1c[nH]c2ccccc12)C(=O)N[C@@H](Cc1ccc(C(=O)c2ccccc2)cc1)C(=O)N1CCC[C@H]1C(=O)Nc1ccccc1 [compound 3006]")
"420 nM"

Turning now to a further compound:
Query: Can you look up EC50 on LHRH binding sites on human ovarian cancer cells (EFO-27) for CNCC(=O)N[C@@H](CCCNC(=N)N)C(=O)N[C@@H](Cc1c[nH]c2ccccc12)C(=O)N[C@@H](CO)C(=O)N[C@@H](Cc1c[nH]cn1)C(=O)N[C@H](CCCNC(=N)N)C(=O)N[C@@H](Cc1c[nH]c2ccccc12)C(=O)N[C@@H](Cc1ccc(C(=O)c2ccccc2)cc1)C(=O)N1CCC[C@H]1C(=O)NCCOCCNC(=O)CN1CCN(CC(=O)O)CCN(CC(=O)O)CCN(CC(=O)O)CC1 [compound 3039] ?
Response: 280 nM

Data credit: patent US20120045393A1
